Recorded IC50 for the following molecules
Target protein (sequence): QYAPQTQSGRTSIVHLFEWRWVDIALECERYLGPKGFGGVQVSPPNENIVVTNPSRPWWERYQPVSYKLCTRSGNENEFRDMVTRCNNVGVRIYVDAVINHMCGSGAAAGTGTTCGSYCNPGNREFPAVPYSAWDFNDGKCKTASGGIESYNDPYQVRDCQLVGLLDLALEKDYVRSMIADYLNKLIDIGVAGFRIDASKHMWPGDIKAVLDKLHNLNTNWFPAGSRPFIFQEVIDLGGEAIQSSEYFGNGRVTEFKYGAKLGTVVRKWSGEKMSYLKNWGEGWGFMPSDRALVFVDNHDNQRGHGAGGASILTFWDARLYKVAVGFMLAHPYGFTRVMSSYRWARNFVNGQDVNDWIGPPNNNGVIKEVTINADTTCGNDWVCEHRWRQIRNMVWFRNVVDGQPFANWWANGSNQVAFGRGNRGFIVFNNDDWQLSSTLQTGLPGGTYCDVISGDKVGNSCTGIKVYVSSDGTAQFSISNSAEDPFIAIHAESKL
OUTCOME_MEASURE: IC50 (µM)

molecule="CC1(C)CC[C@]2(C(=O)O)CC[C@]3(C)C(=CCC4[C@@]5(C)CC/C(=N\\OC(=O)/C=C/c6ccc7c(c6)OCO7)C(C)(C)C5CC[C@]43C)C2C1 (stereo partly shown)" measured_value=17.9
molecule="CC1(C)CC[C@]2(C(=O)O)CC[C@]3(C)C(=CCC4[C@@]5(C)CC/C(=N\\OC(=O)/C=C/c6ccc(O)cc6)C(C)(C)C5CC[C@]43C)C2C1 (stereo partly shown)" measured_value=70.8
molecule="CC1(C)CCC2(C(=O)O)CCC3(C)C(=CCC4C5(C)CCC(=NOC(=O)C=Cc6ccccc6)C(C)(C)C5CCC43C)C2C1 (stereo not shown)" measured_value=7.86
molecule="CC1(C)CC[C@]2(C(=O)O)CC[C@]3(C)C(=CCC4[C@@]5(C)CC/C(=N\\OC(=O)/C=C/c6ccc(F)cc6)C(C)(C)C5CC[C@]43C)C2C1 (stereo partly shown)" measured_value=17.5

###

Target protein (sequence): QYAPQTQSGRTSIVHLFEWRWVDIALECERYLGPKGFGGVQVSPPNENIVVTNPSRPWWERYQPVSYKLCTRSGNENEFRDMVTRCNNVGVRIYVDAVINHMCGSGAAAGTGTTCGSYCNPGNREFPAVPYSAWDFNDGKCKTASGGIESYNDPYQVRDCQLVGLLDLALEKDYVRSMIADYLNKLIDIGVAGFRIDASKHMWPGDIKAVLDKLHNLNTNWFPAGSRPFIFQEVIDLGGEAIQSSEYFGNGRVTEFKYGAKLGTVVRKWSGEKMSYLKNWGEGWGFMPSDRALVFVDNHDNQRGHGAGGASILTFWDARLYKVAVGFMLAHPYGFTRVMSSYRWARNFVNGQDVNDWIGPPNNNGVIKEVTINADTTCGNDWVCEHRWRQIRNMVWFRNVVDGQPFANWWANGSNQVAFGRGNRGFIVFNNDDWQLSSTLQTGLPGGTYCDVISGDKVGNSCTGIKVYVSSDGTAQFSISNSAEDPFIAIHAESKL
pIC50: −log10 of the molar value.
Recorded pIC50 for the following molecules
OUTCOME_MEASURE: pIC50

molecule="COc1ccc(C(=O)O/N=C2\\CC[C@@]3(C)C(CC[C@]4(C)C3CC=C3C5CC(C)(C)CC[C@]5(C(=O)O)CC[C@]34C)C2(C)C)cc1 (stereo partly drawn)" measured_value=4.45
molecule="Cc1ccc(C(=O)O/N=C2\\CC[C@@]3(C)C(CC[C@]4(C)C3CC=C3C5CC(C)(C)CC[C@]5(C(=O)O)CC[C@]34C)C2(C)C)cc1 (stereo partly drawn)" measured_value=4.26
molecule="CC1(C)CC[C@]2(C(=O)O)CC[C@]3(C)C(=CCC4[C@@]5(C)CC/C(=N\\OC(=O)c6ccc([N+](=O)[O-])cc6)C(C)(C)C5CC[C@]43C)C2C1 (stereo partly drawn)" measured_value=4.15
molecule="CC1(C)CC[C@]2(C(=O)O)CC[C@]3(C)C(=CCC4[C@@]5(C)CC/C(=N\\OC(=O)c6ccc(C(F)(F)F)cc6)C(C)(C)C5CC[C@]43C)C2C1 (stereo partly drawn)" measured_value=4.47
molecule="CC1(C)CC[C@]2(C(=O)O)CC[C@]3(C)C(=CCC4[C@@]5(C)CC/C(=N\\OC(=O)c6ccc7c(c6)OCO7)C(C)(C)C5CC[C@]43C)C2C1 (stereo partly drawn)" measured_value=4.73
molecule="Cc1ccc(/C=C/C(=O)O/N=C2\\CC[C@@]3(C)C(CC[C@]4(C)C3CC=C3C5CC(C)(C)CC[C@]5(C(=O)O)CC[C@]34C)C2(C)C)cc1 (stereo partly drawn)" measured_value=4.82

###

Dear all, this message contains IC50 results, target or system α-Glucosidase from Saccharomyces cerevisiae (Saccharomyces cerevisiae).
OUTCOME_MEASURE: IC50 (nM)

molecule="CC1(C)CC[C@]2(C(=O)O)CC[C@]3(C)C(=CCC4[C@@]5(C)CC/C(=N\\OC(=O)/C=C/c6ccc(Cl)cc6)C(C)(C)C5CC[C@]43C)C2C1 (stereo partly drawn)" system_name="α-Glucosidase from Saccharomyces cerevisiae (Saccharomyces cerevisiae)" readout_unit=nM measured_value=950
molecule="CC1(C)CC[C@]2(C(=O)O)CC[C@]3(C)C(=CCC4[C@@]5(C)CC/C(=N\\OC(=O)c6ccc([N+](=O)[O-])cc6)C(C)(C)C5CC[C@]43C)C2C1 (stereo partly drawn)" system_name="α-Glucosidase from Saccharomyces cerevisiae (Saccharomyces cerevisiae)" readout_unit=nM measured_value=1410
molecule="CC1(C)CC[C@]2(C(=O)O)CC[C@]3(C)C(=CCC4[C@@]5(C)CC/C(=N\\OC(=O)c6ccc(C(F)(F)F)cc6)C(C)(C)C5CC[C@]43C)C2C1 (stereo partly drawn)" system_name="α-Glucosidase from Saccharomyces cerevisiae (Saccharomyces cerevisiae)" readout_unit=nM measured_value=3430

###

SYSTEM_NAME: α-amylase from hog pancreas (Sus scrofa)
Sequence (P00690 16-511): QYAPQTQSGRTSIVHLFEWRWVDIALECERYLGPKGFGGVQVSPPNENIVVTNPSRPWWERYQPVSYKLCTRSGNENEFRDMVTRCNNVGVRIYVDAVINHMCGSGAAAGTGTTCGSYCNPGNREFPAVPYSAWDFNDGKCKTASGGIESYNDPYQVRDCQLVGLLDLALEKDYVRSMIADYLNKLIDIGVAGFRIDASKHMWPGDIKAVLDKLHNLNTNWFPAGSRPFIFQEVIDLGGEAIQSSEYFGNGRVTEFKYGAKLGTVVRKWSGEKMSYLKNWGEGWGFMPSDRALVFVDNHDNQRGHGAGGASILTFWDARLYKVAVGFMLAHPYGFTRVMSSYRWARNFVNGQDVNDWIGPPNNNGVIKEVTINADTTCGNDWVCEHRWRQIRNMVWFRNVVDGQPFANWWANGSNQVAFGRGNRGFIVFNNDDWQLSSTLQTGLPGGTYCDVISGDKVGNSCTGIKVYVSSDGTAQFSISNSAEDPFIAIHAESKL
pIC50: −log10 of the molar value.
Recorded pIC50 for the following molecules
OUTCOME_MEASURE: pIC50

molecule="COc1ccc(/C=C/C(=O)O/N=C2\\CC[C@@]3(C)C(CC[C@]4(C)C3CC=C3C5CC(C)(C)CC[C@]5(C(=O)O)CC[C@]34C)C2(C)C)cc1 (stereo partly drawn)" outcome_measure=pIC50 measured_value=4.60
molecule="CC1(C)CC[C@]2(C(=O)O)CC[C@]3(C)C(=CCC4[C@@]5(C)CC/C(=N\\OC(=O)/C=C/c6ccc(Cl)cc6)C(C)(C)C5CC[C@]43C)C2C1 (stereo partly drawn)" outcome_measure=pIC50 measured_value=5.25
molecule="CC1(C)CC[C@]2(C(=O)O)CC[C@]3(C)C(=CCC4[C@@]5(C)CC/C(=N\\OC(=O)/C=C/c6ccc([N+](=O)[O-])cc6)C(C)(C)C5CC[C@]43C)C2C1 (stereo partly drawn)" outcome_measure=pIC50 measured_value=4.74
molecule="CC1(C)CC[C@]2(C(=O)O)CC[C@]3(C)C(=CCC4[C@@]5(C)CC/C(=N\\OC(=O)/C=C/c6ccc(C(F)(F)F)cc6)C(C)(C)C5CC[C@]43C)C2C1 (stereo partly drawn)" outcome_measure=pIC50 measured_value=4.90
molecule="CC1(C)CC[C@]2(C(=O)O)CC[C@]3(C)C(=CCC4[C@@]5(C)CC/C(=N\\OC(=O)c6ccccc6)C(C)(C)C5CC[C@]43C)C2C1 (stereo partly drawn)" outcome_measure=pIC50 measured_value=4.59
molecule="CC1(C)CCC2(C(=O)O)CCC3(C)C(=CCC4C5(C)CCC(=NOC(=O)C=Cc6ccc(Br)cc6)C(C)(C)C5CCC43C)C2C1 (stereo not drawn)" outcome_measure=pIC50 measured_value=5.42

###

SYSTEM_NAME: UniProt P53341
pIC50: −log10 of the molar value.
Recorded pIC50 for the following compounds
OUTCOME_MEASURE: pIC50

compound="Cc1ccc(C(=O)O/N=C2\\CC[C@@]3(C)C(CC[C@]4(C)C3CC=C3C5CC(C)(C)CC[C@]5(C(=O)O)CC[C@]34C)C2(C)C)cc1 (stereo partly drawn)" measured_value=6.00
compound="CC1(C)CC[C@]2(C(=O)O)CC[C@]3(C)C(=CCC4[C@@]5(C)CC/C(=N\\OC(=O)/C=C/c6ccc(O)cc6)C(C)(C)C5CC[C@]43C)C2C1 (stereo partly drawn)" measured_value=6.09
compound="CC1(C)CC[C@]2(C(=O)O)CC[C@]3(C)C(=CCC4[C@@]5(C)CC/C(=N\\OC(=O)/C=C/c6ccc(F)cc6)C(C)(C)C5CC[C@]43C)C2C1 (stereo partly drawn)" measured_value=5.84
compound="Cc1ccc(/C=C/C(=O)O/N=C2\\CC[C@@]3(C)C(CC[C@]4(C)C3CC=C3C5CC(C)(C)CC[C@]5(C(=O)O)CC[C@]34C)C2(C)C)cc1 (stereo partly drawn)" measured_value=6.17
compound="CC1(C)CC[C@]2(C(=O)O)CC[C@]3(C)C(=CCC4[C@@]5(C)CC/C(=N\\OC(=O)/C=C/c6ccc7c(c6)OCO7)C(C)(C)C5CC[C@]43C)C2C1 (stereo partly drawn)" measured_value=6.15
compound="CC1(C)CCC2(C(=O)O)CCC3(C)C(=CCC4C5(C)CCC(=NOC(=O)C=Cc6ccccc6)C(C)(C)C5CCC43C)C2C1 (stereo not drawn)" measured_value=6.46
compound="CC1(C)CCC2(C(=O)O)CCC3(C)C(=CCC4C5(C)CCC(=NOC(=O)C=Cc6ccc(Br)cc6)C(C)(C)C5CCC43C)C2C1 (stereo not drawn)" measured_value=5.89
compound="COc1ccc(C(=O)O/N=C2\\CC[C@@]3(C)C(CC[C@]4(C)C3CC=C3C5CC(C)(C)CC[C@]5(C(=O)O)CC[C@]34C)C2(C)C)cc1 (stereo partly drawn)" measured_value=5.96
compound="CC1(C)CC[C@]2(C(=O)O)CC[C@]3(C)C(=CCC4[C@@]5(C)CC/C(=N\\OC(=O)/C=C/c6ccc([N+](=O)[O-])cc6)C(C)(C)C5CC[C@]43C)C2C1 (stereo partly drawn)" measured_value=5.87
compound="CC1(C)CC[C@]2(C(=O)O)CC[C@]3(C)C(=CCC4[C@@]5(C)CC/C(=N\\OC(=O)c6ccc7c(c6)OCO7)C(C)(C)C5CC[C@]43C)C2C1 (stereo partly drawn)" measured_value=5.86
compound="CC1(C)CC[C@]2(C(=O)O)CC[C@]3(C)C(=CCC4[C@@]5(C)CC/C(=N\\OC(=O)/C=C/c6ccc(C(F)(F)F)cc6)C(C)(C)C5CC[C@]43C)C2C1 (stereo partly drawn)" measured_value=5.50
compound="COc1ccc(/C=C/C(=O)O/N=C2\\CC[C@@]3(C)C(CC[C@]4(C)C3CC=C3C5CC(C)(C)CC[C@]5(C(=O)O)CC[C@]34C)C2(C)C)cc1 (stereo partly drawn)" measured_value=6.05
